The measurements presented in this section are drawn from patent US20100279930A1.

- testTarget: human Y4 receptor (human, UniProt P50391 1-375)
- Sequence (P50391 whole entry): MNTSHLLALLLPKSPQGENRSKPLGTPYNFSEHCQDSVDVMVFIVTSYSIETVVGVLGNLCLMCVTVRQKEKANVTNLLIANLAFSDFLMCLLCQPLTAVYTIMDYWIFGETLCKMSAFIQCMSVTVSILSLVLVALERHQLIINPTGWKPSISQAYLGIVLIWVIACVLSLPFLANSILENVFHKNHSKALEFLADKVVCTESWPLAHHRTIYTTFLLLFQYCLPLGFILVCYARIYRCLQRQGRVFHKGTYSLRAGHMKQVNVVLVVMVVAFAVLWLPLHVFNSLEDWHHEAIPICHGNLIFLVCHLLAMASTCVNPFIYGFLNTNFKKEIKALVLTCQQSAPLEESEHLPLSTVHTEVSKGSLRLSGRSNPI
- measurementProtocol: 125I-PP displacement
pIC50: −log10 of the molar value.
The following binders are shown together with reported pIC50 values.
measurementType: pIC50

{"binder": "APLEPVYPGDNATPEELVKYYASLRRYINMLTRPRY [7109]", "assayResult": 10.08}
{"binder": "APLEPVYPGDNATPEEINRYYSALRRYINMLTRPRY [7121]", "assayResult": 9.92}
{"binder": "PAPLEPVYPGDNATPEELVKYYASLRRYINMLTRPRY [7110]", "assayResult": 9.96}
{"binder": "APLEPVYPGDDATPEQMAHYAAELRRYINMLTRPRY [7165]", "assayResult": 9.74}
{"binder": "DAPLEPVYPGDNATPEQMAQYAAALRRYINKLTRPRY [7216]", "assayResult": 9.96}
{"binder": "PAPLEPVYPGDDATPQEIVHYFIELRRYINTLTRPRY [7133]", "assayResult": 9.76}
{"binder": "PAPLEPVYPGDNATPEELVKYYSALRHYINMLTRPRY [7104]", "assayResult": 9.65}
{"binder": "APLEPVYPGDNATPEQMAQYAADLRRYINCLTRPRY [7115]", "assayResult": 9.64}
{"binder": "GAPLEPVYPGDNATPEQMAHYAAELRRYINMLTRPRY [7162]", "assayResult": 9.66}
{"binder": "APLEPVYPGDNATPEQMAHYAAELRRYINMLTRPRY [7160]", "assayResult": 9.82}
{"binder": "APLEPEYPGDDATPQQMAHYAAELRRYINMLTRPRY [7149]", "assayResult": 9.92}
